- Test system: SW1088 (Low Grade Glioma)
- EXPERIMENT_SUMMARY: combination Emax (second highest fraction inhibited in the dose matrix, 72 h); higher = more inhibition; extreme values may be limits of the assay
OBSERVATION_TYPE: combination Emax
// return a plain number; no unit text

Given the compound COc1nnc2ccc(N3CCC(c4ccc(OCCN5CCN(C)C(=O)[C@H]5C)cc4)CC3)nn12 [AZD5153] + C=CCn1c(=O)c2cnc(Nc3ccc(N4CCN(C)CC4)cc3)nc2n1-c1cccc(C(C)(C)O)n1 [AZD1775] (first compound max 1 µM, partner max 1 µM) , what is its reported combination Emax?
0.513

Dear colleague, I am looking for the recorded combination Emax of the following compound: Cc1c2c(nn1C)CSCc1cc(n(C)n1)CSc1cc(c3ccccc3c1)OCCCc1c(C(=O)O)n(C)c3c-2c(Cl)ccc13 [AZD5991] + Cc1cc2ncnn2cc1Nc1ncc2c(n1)n(C1CCOCC1)c(=O)n2C [AZD7648] (first compound max 1 µM, 7x7, partner max 10 µM)
0.423

State the recorded combination Emax for this entry: O=C(c1cc(Cc2n[nH]c(=O)c3ccccc23)ccc1F)N1CCN(C(=O)C2CC2)CC1 [Olaparib] + CC1(C)CCC(CN2CCN(c3ccc(C(=O)NS(=O)(=O)c4ccc(NCC5CCOCC5)c([N+](=O)[O-])c4)c(Oc4cnc5[nH]ccc5c4)c3)CC2)=C(c2ccc(Cl)cc2)C1 [Venetoclax] (first compound max 10 µM, 7x7, partner max 1 µM)
0.136

Looking for the measured combination Emax of CN(CCO)CC[C@H](CSc1ccccc1)Nc1ccc(S(=O)(=O)NC(=O)c2ccc(N3CCC([C@@H](O)c4ccccc4-c4ccc(Cl)cc4)CC3)cc2)cc1S(=O)(=O)C(F)(F)F [AZD4320] + Cn1cnc2c(F)c(Nc3ccc(Br)cc3Cl)c(C(=O)NOCCO)cc21 [Selumetinib] (first compound max 1 µM, 7x7, partner max 3 µM) , can you help?
0.289

Continuing:
Find the recorded combination Emax belonging to CC1(C)CCC(CN2CCN(c3ccc(C(=O)NS(=O)(=O)c4ccc(NCC5CCOCC5)c([N+](=O)[O-])c4)c(Oc4cnc5[nH]ccc5c4)c3)CC2)=C(c2ccc(Cl)cc2)C1 [Venetoclax] + Cn1cnc2c(F)c(Nc3ccc(Br)cc3Cl)c(C(=O)NOCCO)cc21 [Selumetinib] (first compound max 1 µM, 7x7, partner max 3 µM) and report it.
0.146

May I ask what combination Emax has been recorded for COc1nnc2ccc(N3CCC(c4ccc(OCCN5CCN(C)C(=O)[C@H]5C)cc4)CC3)nn12 [AZD5153] + Cc1c2c(nn1C)CSCc1cc(n(C)n1)CSc1cc(c3ccccc3c1)OCCCc1c(C(=O)O)n(C)c3c-2c(Cl)ccc13 [AZD5991] (first compound max 1 µM, 7x7, partner max 1 µM) ?
0.487
